Sourced from patent US10759751B2

Target: human muscarinic M2 receptor (Homo sapiens, UniProt P08172)
Sequence (P08172 whole entry): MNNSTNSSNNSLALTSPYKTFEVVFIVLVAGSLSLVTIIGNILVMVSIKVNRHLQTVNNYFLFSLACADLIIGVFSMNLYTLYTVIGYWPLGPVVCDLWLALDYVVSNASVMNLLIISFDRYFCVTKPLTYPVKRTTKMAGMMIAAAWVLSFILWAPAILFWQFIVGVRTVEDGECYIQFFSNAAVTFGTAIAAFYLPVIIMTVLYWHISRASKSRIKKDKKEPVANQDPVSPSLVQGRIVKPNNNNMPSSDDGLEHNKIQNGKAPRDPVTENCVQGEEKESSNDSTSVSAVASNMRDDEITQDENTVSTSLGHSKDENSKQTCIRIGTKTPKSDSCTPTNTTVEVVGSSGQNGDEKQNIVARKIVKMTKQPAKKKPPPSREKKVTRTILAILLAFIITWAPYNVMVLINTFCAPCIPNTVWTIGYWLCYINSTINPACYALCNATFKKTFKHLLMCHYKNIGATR
Assay: Alphascreen Surefire phospho-ERK1/2 functional assay, M2
Format: cell-based
Conditions: CHO cells stably expressing human M2; phospho-ERK1/2; read-out: pEC50 M2 (converted)
In this section we review reported EC50 values for a set of compounds.

compound="CCOC(=O)N1CCCN(C2CCC(C#N)(c3ccccn3)CC2)CC1 (mixture of isomers) [3-11 mixture of isomers]" property_label=EC50 result="> 20 µM"
compound="COc1ccc2c(c1)C1(CCC(N3CCC[C@@H](c4nc(C)no4)C3)CC1)C(=O)N2 (single isomer, unassigned) [22-2 Isomer 1]" property_label=EC50 result="> 20 µM"

# input for lookup
q: Supply reported EC50 belonging to this compound: N#CC1(c2ccccc2)CCC(N2CC3(CC(c4nc(C(F)(F)F)no4)C3)C2)CC1 (single isomer, unassigned) [20-1 Isomer 2]
a: > 20 µM

* * *

Molecular target: human muscarinic M3 receptor (Homo sapiens, UniProt P20309)
Construct: expressed in transfected cells
Sequence (P20309 whole entry): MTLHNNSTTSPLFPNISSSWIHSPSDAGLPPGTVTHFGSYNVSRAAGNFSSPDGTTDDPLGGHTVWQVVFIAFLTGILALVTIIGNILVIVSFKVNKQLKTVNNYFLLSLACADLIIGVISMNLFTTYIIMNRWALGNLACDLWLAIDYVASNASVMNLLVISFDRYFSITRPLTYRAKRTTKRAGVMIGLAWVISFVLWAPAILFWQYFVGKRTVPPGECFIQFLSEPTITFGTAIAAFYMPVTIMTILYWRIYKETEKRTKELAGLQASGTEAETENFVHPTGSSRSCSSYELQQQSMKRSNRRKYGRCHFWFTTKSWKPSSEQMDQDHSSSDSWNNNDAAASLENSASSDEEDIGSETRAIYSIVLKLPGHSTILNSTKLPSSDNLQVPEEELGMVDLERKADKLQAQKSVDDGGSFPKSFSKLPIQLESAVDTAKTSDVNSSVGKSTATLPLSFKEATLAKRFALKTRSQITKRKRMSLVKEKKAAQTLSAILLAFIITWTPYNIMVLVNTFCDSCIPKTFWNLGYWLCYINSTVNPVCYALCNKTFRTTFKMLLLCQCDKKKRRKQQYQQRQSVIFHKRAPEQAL
Test: Alphascreen Surefire phospho-ERK1/2 functional assay, M3
Format: cell-based
Conditions: CHO, read-out: M3 % Emax cf. ACh
PROPERTY LABEL: Emax (%)
Quick reminder: number only, in %, skip the unit.

Below, each entry is followed by its recorded Emax result.
compound="CCOC(=O)N1CCCN(C2CCC3(CC2)C(=O)Nc2ccc(OC)cc23)CC1 (single isomer, unassigned) [4-12 isomer 1]" numeric_result=34
compound="Cc1noc(C2CC3(CCN(C4CCC(C#N)(c5ccccc5F)CC4)C3)C2)n1 (single isomer, unassigned) [21-2 Isomer 3]" numeric_result=15
compound="CC#CCOC(=O)N1CCCN(C2CCC(C#N)(c3ccc(OC)cn3)CC2)CC1 (single isomer, unassigned) [3-32 Isomer 1]" numeric_result=0
compound="N#CC1(c2ccccc2)CCC(N2CCCN(C(=O)OCCF)CC2)CC1 (mixture of isomers) [3-29 mixture of isomers]" numeric_result=3
compound="CCOC(=O)NCC1CCN(C2CCC(C#N)(c3ccccc3)CC2)CC1 (single isomer, unassigned) [6-2-Isomer 2]" numeric_result=12
compound="Cc1noc([C@H]2CC[C@@H](NC3CCC(C#N)(c4ccccn4)CC3)C2)n1 (single isomer, unassigned) [19-1 Isomer 2]" numeric_result=8

q: Fill: Emax (human muscarinic M3 receptor (Homo sapiens, UniProt P20309)) for this compound CCOC(=O)N1CCCN(C2CCC(C#N)(c3ccccc3C)CC2)CC1 (mixture of isomers) [3-7 mixture of isomers]
a: 34

q: Check human muscarinic M3 receptor (Homo sapiens, UniProt P20309) data and give Emax for Cc1ccc2c(c1)C1(CCC(N3CCC4(CC(c5nc(C)no5)C4)C3)CC1)C(=O)N2 (single isomer, unassigned) [26-1 Isomer 2] .
a: 7

q: Report Emax under test system human muscarinic M3 receptor (Homo sapiens, UniProt P20309) for CCOC(=O)N[C@H]1CCN(C2CCC(C#N)(c3cccc(OC)c3)CC2)C1 (single isomer, unassigned) [1-11 Isomer 2] .
a: 1

q: With human muscarinic M3 receptor (Homo sapiens, UniProt P20309) as the test system, provide measured Emax for this compound: Cc1ccc2c(c1)C1(CCC(N3CCC[C@@H](c4nc(C)no4)C3)CC1)C(=O)N2 (single isomer, unassigned) [22-3 Isomer 1]
a: 59

q: Name the value of Emax reported for CCOC(=O)N(C)[C@@H]1CCN(C2CCC3(CC2)C(=O)Nc2ncccc23)C1 (single isomer, unassigned) [2-18 isomer 1] when tested on human muscarinic M3 receptor (Homo sapiens, UniProt P20309).
a: 11

q: Fill in: Emax on human muscarinic M3 receptor (Homo sapiens, UniProt P20309), entry CC#CCOC(=O)N1CCCN(C2CCC(C#N)(c3ccncc3)CC2)CC1 (single isomer, unassigned) [3-30 Isomer 1]
a: 0

q: Output reported Emax of the compound CCOC(=O)N1CCCN(C2CCC3(CC2)C(=O)Nc2cccc(C)c23)CC1 (single isomer, unassigned) [4-8 isomer 2] on human muscarinic M3 receptor (Homo sapiens, UniProt P20309).
a: 9

* * *

Target: human muscarinic M3 receptor (Homo sapiens)
Construct: expressed in transfected cells
Assay: Alphascreen Surefire phospho-ERK1/2 functional assay, M3
Assay type: cell-based
Details: CHO, read-out: M3 % Emax cf. ACh
PROPERTY LABEL: Emax (%)
Supply the numeric figure in %, leaving out any unit text.

Example entries begin here.
compound="CCOC(=O)N[C@H]1CCN(C2CCC3(CC2)C(=O)Nc2ccccc23)C1 (single isomer, unassigned) [2-1 isomer 1]" property_label=Emax numeric_result=4
compound="CCOC(=O)N1CCCN(C2CCC3(CC2)C(=O)Nc2ccc(C)cc23)CC1 (single isomer, unassigned) [4-7 isomer 1]" property_label=Emax numeric_result=20
compound="CCCC(=O)N1CCCN(C2CCC3(CC2)C(=O)Nc2ccccc23)CC1 (single isomer, unassigned) [4-3 isomer 2]" property_label=Emax numeric_result=2
compound="COc1ccc2c(c1)C1(CCC(N3CCC[C@@H](c4nc(C)no4)C3)CC1)C(=O)N2 (single isomer, unassigned) [22-2 Isomer 1]" property_label=Emax numeric_result=21
compound="CCOC(=O)N1CCC2(CCN(C3CCC4(CC3)C(=O)Nc3ccccc34)CC2)C1 (single isomer, unassigned) [12-1 isomer 1]" property_label=Emax numeric_result=1
compound="CCOC(=O)N[C@H]1CCN(C2CCC3(CC2)C(=O)Nc2cc(C)ccc23)C1 (single isomer, unassigned) [2-4 isomer 1]" property_label=Emax numeric_result=11

q: Provide Emax value for the following compound: CCOC(=O)N1CCCN(C2CCC(C#N)(c3ccc(C(F)(F)F)cn3)CC2)CC1 (mixture of isomers) [3-21 mixture of isomers]
a: 2

q: Given the compound COc1ccc2c(c1)C1(CCC(N3CCC4(CC(c5nc(C)no5)C4)C3)CC1)C(=O)N2 (single isomer, unassigned) [26-2 Isomer 1] , write its reported Emax.
a: 4

q: Assign Emax to the following record: CCOC(=O)N1CCC2(CCN(C3CCC(C#N)(c4ccccc4)CC3)CC2)C1 (single isomer, unassigned) [13-1 Isomer 2]
a: 7

q: Identify Emax associated with the compound CCOC(=O)N1CCCN(C2CCC(C#N)(c3ccc(Cl)cc3)CC2)CC1 (mixture of isomers) [3-6 mixture of isomers]
a: 38

q: Fill in Emax for record O=C1Nc2ccccc2C12CCC(N[C@@H]1CC[C@H](c3nc(C(F)(F)F)no3)C1)CC2 (single isomer, unassigned) [24-1 Isomer 1]
a: 23

q: State its Emax: CCc1noc(C2CC3(C2)CN(C2CCC4(CC2)C(=O)Nc2ccccc24)C3)n1 (single isomer, unassigned) [25-1 Isomer 1]
a: 6

q: Fill in reported Emax for this entry: CCc1noc(C2CC3(CCN(C4CCC5(CC4)C(=O)Nc4ccccc45)C3)C2)n1 (single isomer, unassigned) [26-3 Isomer 1]
a: 19

q: Report measured Emax; entry is CCOC(=O)N1CCCN(C2CCC(C#N)(c3cccc(F)c3)CC2)CC1 (mixture of isomers) [3-2 mixture of isomers]
a: 46

q: State, in one line, measured Emax of CCOC(=O)N(C)[C@@H]1CCN(C2CCC(C#N)(c3ccccc3)CC2)C1 (single isomer, unassigned) [1-21 Isomer 2]
a: 5

q: Fill in reported Emax for this entry: CCOC(=O)N[C@H]1CCN(C2CCC3(CC2)C(=O)Nc2cccc(C)c23)C1 (single isomer, unassigned) [2-6 isomer 1]
a: 16

q: Return Emax for the following compound: CCOC(=O)N1CCC2(CCN(C3CCC4(CC3)C(=O)N(C(=O)OCC)c3ccccc34)CC2)C1 (single isomer, unassigned) [12-2 isomer 1]
a: 0

q: Answer with reported Emax of N#CC1(c2ccccc2)CCC(N2CC3(CC(c4nc(C(F)(F)F)no4)C3)C2)CC1 (single isomer, unassigned) [20-1 Isomer 2]
a: 30

* * *

Target: human muscarinic M4 receptor (Homo sapiens)
Construct: expressed in transfected cells
Sequence (P08173 whole entry): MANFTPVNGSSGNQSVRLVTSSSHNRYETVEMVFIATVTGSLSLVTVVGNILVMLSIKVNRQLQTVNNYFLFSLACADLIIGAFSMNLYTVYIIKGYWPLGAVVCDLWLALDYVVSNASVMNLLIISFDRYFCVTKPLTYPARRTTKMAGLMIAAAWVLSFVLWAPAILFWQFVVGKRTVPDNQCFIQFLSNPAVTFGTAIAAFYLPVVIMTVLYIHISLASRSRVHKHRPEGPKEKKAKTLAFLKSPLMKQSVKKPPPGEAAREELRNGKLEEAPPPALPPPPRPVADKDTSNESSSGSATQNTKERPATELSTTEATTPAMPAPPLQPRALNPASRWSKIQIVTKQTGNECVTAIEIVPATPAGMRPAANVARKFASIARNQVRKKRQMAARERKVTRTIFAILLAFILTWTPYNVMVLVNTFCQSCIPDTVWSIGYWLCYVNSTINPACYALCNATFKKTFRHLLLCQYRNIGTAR
Test: Alphascreen Surefire phospho-ERK1/2 functional assay, M4
Format: cell-based
Conditions: CHO cells stably expressing human M4; phospho-ERK1/2; read-out: pEC50 M4 (converted)
Protocol: Functional assays were performed using the Alphascreen Surefire phospho-ERK1/2 assay (Crouch & Osmond, Comb. Chem. High Throughput Screen, 2008). […] Plates were incubated for 2 h with gentle agitation in the dark and then read on a PHERAstar plate reader. pEC50 and Emax figures were calculated from the resulting data for each receptor subtype.
PROPERTY LABEL: EC50 (nM)
Quick note: give the figure in nM, leave out the unit.

molecule="CCOC(=O)N1CCCN(C2CCC(c3nc(CC)c(C)[nH]3)CC2)CC1 (single isomer, unassigned) [5-1 Isomer 2]" measurement_target="human muscarinic M4 receptor (Homo sapiens)" unit_spec=nM numeric_result=513
molecule="Cc1ccc2c(c1)C1(CCC(N3CCC4(CC(c5nc(C)no5)C4)C3)CC1)C(=O)N2 (single isomer, unassigned) [26-1 Isomer 2]" measurement_target="human muscarinic M4 receptor (Homo sapiens)" unit_spec=nM numeric_result=40.7

// below: EC50 requested for another molecule
q: Return the recorded EC50 value; entry: CCOC(=O)N1CCCN(C2CCC3(CC2)C(=O)Nc2cccc(C)c23)CC1 (single isomer, unassigned) [4-8 isomer 1]
a: 380
